measurement.target: T1, biotinylated-Lag3 (UniProt P18627 23-450, limits assumed, biotinylated)
T1 construct: Probably a human LAG3 ECD construct; also called Lag3 (MHCII/ELISA)
T1 sequence (looked up): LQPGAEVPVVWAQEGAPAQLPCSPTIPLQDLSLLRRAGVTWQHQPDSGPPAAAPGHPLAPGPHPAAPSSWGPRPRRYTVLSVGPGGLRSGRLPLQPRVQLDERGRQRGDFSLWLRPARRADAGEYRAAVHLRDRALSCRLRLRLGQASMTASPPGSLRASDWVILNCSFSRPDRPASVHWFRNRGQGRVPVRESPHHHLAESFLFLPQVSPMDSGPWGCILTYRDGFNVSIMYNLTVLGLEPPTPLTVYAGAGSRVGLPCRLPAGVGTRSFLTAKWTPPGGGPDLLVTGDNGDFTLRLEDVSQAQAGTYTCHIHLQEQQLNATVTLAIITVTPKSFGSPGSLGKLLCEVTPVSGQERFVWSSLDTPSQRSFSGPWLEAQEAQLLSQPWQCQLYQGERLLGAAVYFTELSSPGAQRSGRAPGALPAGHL
assay.remarks: ELISA, inhibition of biotinylated-Lag3 binding to MHC-II on A375 cells (competitor MHC-II)
measurement.kind: pIC50
# pIC50 is unitless: minus log10 of the molar concentration; print number only

Look over these answered cases.
1. aLAG3(0416) (antibody, V domains shown) VH: EVQLVESGGGLVQPGGSLRLACAASGFTFSDYAMSWVRQAPGKGLEWVSGIDNSGYYTYYTDSVKGRFTISRDDVKNTLYLQMNSLRAEDTAVYLCTKTHSGLIVNDAFDIWGQGTMVTVSS VL: DIQLTQSPSSLSASVGDRVTITCRASQSISSYLNWYQQKPGKAPKLLIYDASSLESGVPSRFSGSGSGTDATLTISSLQPEDFATYYCQQSYSTPLTFGGGTKVEIKG; 9.05
2. aLAG3(0411) (antibody, V domains shown, also called aLAG3 (411)) VH: EVHLLESGGGLVQPGGSLRLSCAASGFIVDDYTMNWVRQAPGKGLEWVSVISWDGGATYYADSVKGRFTISRDDFKNTLYLQMNSLRAEDTAVYYCAKGLTDDTLYGSDYWGQGTLVTVSS VL: DIQMTQSPSSLSASVGDRVTITCRASQSIVSYLNWYQQKPGKAPKLLIYASSSLQSGVPSRFSGSGSGTDFTLTISSLQPEDFATYYCQQTYSTPLTFGGGTKVEIK; 9.10

For the binder aLAG3(0414) (antibody, V domains shown) VH: EVQLLESGGGLVQPGGSLRLSCAASGFIFDDYTMNWVRQAPGKGLEWVAVISWDGGGTYYTDSVKGRFTISRDDFKNTLYLQMNSLRAEDTAVYYCAKGLTDTTLYGSDYWGQGTLVTVSS VL: DIQMTQSPSSLSASVGDRVTITCRASQSISSYLNWYQQKPGKAPKLLIYAASTLQSGVPSRFSGSGSGTDFTLTISSLQPEDFATYYCQQTYSSPLTFGGGTKVEIKG , give its reported pIC50. 9.05

For the binder humanized BAP050 (LAG525) (antibody, V domains shown, also called aLAG3(BAP050)) VH: QIQLVQSGPELKKPGETVKISCKASGFTLTNYGMNWVRQTPGKGLKWMGWINTDTGEPTYADDFKGRFAFSLETSASTASLQINNLKNADTATYFCARNPPYYYGTNNAEAMDYWGQGTTVTVSS VL: DIQMTQTTSSLSASLGDRVTISCSSSQDISNYLNWYQQKPDGTVKVLIYYTSTLHLGVPSRFSGSGSGTDYSLTISNLELEDIATYYCQQYYNLPWTFGQGTKVEIK , give its reported pIC50. 9.00
